experiment: Peptide stability in simulated intestinal fluid (SIF); type: in vitro ADME; settings: pig, 37 °C, porcine pancreatin, pH 6.8, 4 h, read-out: SIF (% remaining 4 h)
Measure Name: remaining at 4 h, 10 µM (%)
Numeric answer only, unit % assumed.

CC[C@H](C)[C@@H]1NC(=O)[C@@H]2CCCCNC(=O)CC[C@@H](C(=O)NC3(C(=O)N[C@@H](Cc4cccnc4)C(=O)NC)CCNCC3)NC(=O)[C@](C)(CC(C)C)NC(=O)[C@H](Cc3ccc4ccccc4c3)NC(=O)[C@H](Cc3ccc(OCCN)cc3)NC(=O)[C@H](CCC(=O)N2)NC(=O)[C@H](CCC(N)=O)NC(=O)[C@H](Cc2c[nH]c3ccccc23)NC(=O)[C@H](C(C)C)NC1=O; 87
CC[C@H](C)[C@@H]1NC(=O)[C@@H]2CCCCNC(=O)CC[C@@H](C(=O)NCCc3cccnc3)NC(=O)[C@](C)(C(C)C)NC(=O)[C@H](Cc3ccc4ccccc4c3)NC(=O)[C@H](Cc3ccc(OCCN)cc3)NC(=O)[C@H](CCC(=O)N2)NC(=O)[C@H](CCC(N)=O)NC(=O)[C@H](Cc2c[nH]c3ccccc23)NC(=O)[C@H](C(C)C)NC1=O; 96

Here is another compound to look at.
What remaining at 4 h, 10 µM value was documented for this compound, CNC(=O)[C@H](Cc1cccnc1)NC(=O)[C@H](Cc1cnc[nH]1)NC(=O)[C@@H]1CCC(=O)NCCCC[C@@H]2NC(=O)CC[C@H](NC(=O)[C@H](CCC(N)=O)NC(=O)[C@H](Cc3c[nH]c4ccccc34)NC(=O)CCNC2=O)C(=O)N[C@@H](Cc2ccc(OCCN)cc2)C(=O)N[C@@H](Cc2ccc3ccccc3c2)C(=O)N[C@@](C)(CC(C)C)C(=O)N1 ? 36
